Consider the following molecules and their measured % GPCR/total readings.
# measuredTarget: T1, GIP Receptor (Homo sapiens, UniProt P48546)
# T1 construct: host or cells: HEK293T
# T1 sequence (P48546 22-466): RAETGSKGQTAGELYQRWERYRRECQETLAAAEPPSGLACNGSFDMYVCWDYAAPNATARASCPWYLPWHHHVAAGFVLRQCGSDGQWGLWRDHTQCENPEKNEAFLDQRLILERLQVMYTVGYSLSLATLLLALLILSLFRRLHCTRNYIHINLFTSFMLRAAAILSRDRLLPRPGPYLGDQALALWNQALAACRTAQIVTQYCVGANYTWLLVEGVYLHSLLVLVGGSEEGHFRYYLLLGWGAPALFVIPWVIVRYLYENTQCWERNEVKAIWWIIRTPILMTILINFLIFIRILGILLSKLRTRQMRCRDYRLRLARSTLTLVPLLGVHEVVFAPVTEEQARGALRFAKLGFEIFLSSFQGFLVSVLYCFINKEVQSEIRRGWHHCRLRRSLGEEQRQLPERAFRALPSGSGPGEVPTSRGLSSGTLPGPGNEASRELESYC
# assayText: GIP receptor-mediated bioluminescence in HEK293T cells with chimeric promiscuous G protein (FIG. 5, Table II)
# Type: cell-based
# reportedConditions: signal induced by maximal GIP (1 μM) as percentage of signal induced by Triton X-100 with 1 mM Ca^2+
readout: % GPCR/total (%)

{"molecule": "Mt-clytin K168R: Mitochondrial K168R modified Clytin, SEQ ID NO:30 (protein) MSVLTPLLLRGLTGSARRLPVPRAKIHSLPPEGKLRPNFDNPKWVNRHKFMFNFLDINGDGKITLDEIVSKASDDICAKLGATPEQTKRHQDAVEAFFKKIGMDYGKEVEFPAFVDGWKELANYDLKLWSQNKKSLIRDWGEAVFDIFDKDGSGSISLDEWKAYGRISGICSSDEDAEKTFKHCDLDNSGRLDVDEMTRQHLGFWYTLDPNADGLYGNFVP", "displayUnit": "%", "quantitativeReadout": 3.3}
{"molecule": "Mt-clytin K168E: Mitochondrial K168E modified Clytin, SEQ ID NO:12 (protein) MSVLTPLLLRGLTGSARRLPVPRAKIHSLPPEGKLRPNFDNPKWVNRHKFMFNFLDINGDGKITLDEIVSKASDDICAKLGATPEQTKRHQDAVEAFFKKIGMDYGKEVEFPAFVDGWKELANYDLKLWSQNKKSLIRDWGEAVFDIFDKDGSGSISLDEWKAYGRISGICSSDEDAEKTFKHCDLDNSGELDVDEMTRQHLGFWYTLDPNADGLYGNFVP", "displayUnit": "%", "quantitativeReadout": 19.8}
{"molecule": "Mt-clytin K168N: Mitochondrial K168N modified Clytin, SEQ ID NO:18 (protein) MSVLTPLLLRGLTGSARRLPVPRAKIHSLPPEGKLRPNFDNPKWVNRHKFMFNFLDINGDGKITLDEIVSKASDDICAKLGATPEQTKRHQDAVEAFFKKIGMDYGKEVEFPAFVDGWKELANYDLKLWSQNKKSLIRDWGEAVFDIFDKDGSGSISLDEWKAYGRISGICSSDEDAEKTFKHCDLDNSGNLDVDEMTRQHLGFWYTLDPNADGLYGNFVP", "displayUnit": "%", "quantitativeReadout": 10.7}
{"molecule": "Cyto-obelin: Wild-type Obelin (wt-Obelin) amino acid sequence, SEQ ID NO:4; cytosolic (protein, listed as Obelia longissima) MSSKYAVKLKTDFDNPRWIKRHKHMFDFLDINGNGKITLDEIVSKASDDICAKLEATPEQTKRHQVCVEAFFRGCGMEYGKEIAFPQFLDGWKQLATSELKKWARNEPTLIREWGDAVFDIFDKDGSGTITLDEWKAYGKISGISPSQEDCEATFRHCDLDNSGDLDVDEMTRQHLGFWYTLDPEADGLYGNGVP", "displayUnit": "%", "quantitativeReadout": 56.7}
{"molecule": "Mt-clytin K168S: Mitochondrial K168S modified Clytin, SEQ ID NO:22 (protein) MSVLTPLLLRGLTGSARRLPVPRAKIHSLPPEGKLRPNFDNPKWVNRHKFMFNFLDINGDGKITLDEIVSKASDDICAKLGATPEQTKRHQDAVEAFFKKIGMDYGKEVEFPAFVDGWKELANYDLKLWSQNKKSLIRDWGEAVFDIFDKDGSGSISLDEWKAYGRISGICSSDEDAEKTFKHCDLDNSGSLDVDEMTRQHLGFWYTLDPNADGLYGNFVP", "displayUnit": "%", "quantitativeReadout": 20.3}

Ref: patent US20110081661A1
